- Target system: UDP-glucuronosyltransferase 1A8 (Homo sapiens, UniProt Q9HAW9)
- Sequence (Q9HAW9 whole entry): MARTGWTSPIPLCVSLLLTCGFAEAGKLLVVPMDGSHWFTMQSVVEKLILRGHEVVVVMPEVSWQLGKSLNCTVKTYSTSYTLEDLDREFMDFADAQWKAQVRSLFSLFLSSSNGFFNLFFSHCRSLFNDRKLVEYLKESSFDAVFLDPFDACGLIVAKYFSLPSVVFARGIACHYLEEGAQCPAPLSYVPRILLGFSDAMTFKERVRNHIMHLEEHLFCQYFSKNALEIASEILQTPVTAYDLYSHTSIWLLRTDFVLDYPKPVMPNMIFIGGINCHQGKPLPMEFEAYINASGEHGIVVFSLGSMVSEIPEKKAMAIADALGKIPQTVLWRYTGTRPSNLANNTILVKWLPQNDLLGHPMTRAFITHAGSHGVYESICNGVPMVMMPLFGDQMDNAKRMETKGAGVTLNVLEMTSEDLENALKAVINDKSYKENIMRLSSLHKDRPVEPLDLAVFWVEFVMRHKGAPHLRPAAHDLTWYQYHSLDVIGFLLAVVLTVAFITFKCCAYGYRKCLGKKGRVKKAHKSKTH
- Assay info: Activity of human recombinant UGT1A8 expressed in baculovirus-infected insect cells assessed as intrinsic clearance for enzyme-mediated glucuronide formation per mg of protein at 1 to 250 uM after 10 mins in presence of UDPGA
- Type: ADME
Measured endpoint: clearance (µL/min/mg)
Please state the figure in µL/min/mg; there is no need to write the unit.

I would be grateful if you could share the reported clearance for COc1ccc(C(=O)Nc2cccc(O)c2NC(=O)c2ccc(N3CCCN(C)CC3)cc2)cc1.O=C(O)CCC(=O)O . 51.5

###

- Tested on: Liver microsome
- Assay info: Unbound intrinsic clearance in human liver microsomes assessed per mg of protein after 10 mins in presence of UDPGA and 0.1% fatty acid free BSA
- Format: ADME
Measured endpoint: CL free
Quick note: unit goes after the number.

I would be grateful if you could share the reported CL free for COc1ccc(C(=O)Nc2cccc(O)c2NC(=O)c2ccc(N3CCCN(C)CC3)cc2)cc1.O=C(O)CCC(=O)O . 184 µL/min/mg

###

- Target system: UDP-glucuronosyltransferase 1A9 (Homo sapiens, UniProt O60656)
- Sequence (O60656 whole entry): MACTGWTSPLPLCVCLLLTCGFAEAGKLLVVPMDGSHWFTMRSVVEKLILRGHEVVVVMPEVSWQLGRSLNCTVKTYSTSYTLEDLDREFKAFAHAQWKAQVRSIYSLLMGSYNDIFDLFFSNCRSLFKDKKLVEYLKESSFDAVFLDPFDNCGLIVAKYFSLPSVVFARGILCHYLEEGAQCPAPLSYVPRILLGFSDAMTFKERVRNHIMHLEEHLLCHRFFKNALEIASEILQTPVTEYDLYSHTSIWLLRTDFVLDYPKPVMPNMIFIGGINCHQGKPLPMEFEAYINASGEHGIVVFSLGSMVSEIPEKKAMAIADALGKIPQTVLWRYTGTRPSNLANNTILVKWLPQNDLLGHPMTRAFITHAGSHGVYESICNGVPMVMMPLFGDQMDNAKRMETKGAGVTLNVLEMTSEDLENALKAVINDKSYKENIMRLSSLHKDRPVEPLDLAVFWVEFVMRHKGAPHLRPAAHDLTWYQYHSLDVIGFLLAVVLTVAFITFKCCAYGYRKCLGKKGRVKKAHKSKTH
- Assay info: Activity of human recombinant UGT1A9 expressed in baculovirus-infected insect cells assessed as intrinsic clearance for enzyme-mediated glucuronide formation per mg of protein at 1 to 250 uM after 5 mins by Michaelis-Menten plot analysis in presence of UDPGA
- Assay type: ADME
Measured endpoint: clearance (µL/min/mg)
Please state the figure in µL/min/mg; there is no need to write the unit.

I would be grateful if you could share the reported clearance for COc1ccc(C(=O)Nc2cccc(O)c2NC(=O)c2ccc(N3CCCN(C)CC3)cc2)cc1.O=C(O)CCC(=O)O . 132
